# experimental details: Solubility testing of peptides at different pH
# Type: physicochemical
# measurement parameters: 50 mM HCl buffer; 50 mM HCl pH 1.2; target concentration 1 mg/ml; 2 hours agitation; read-out: Solubility Buffer pH 1.2
Positions of bridges follow the written chain, without caps; N, C: chain ends. Non-standard residues stand in square brackets, D forms with d. Residues, ends and D or L forms follow the SMILES beside them. *: point of attachment. Trp(7-Me) = Cc1cccc2c(C[C@H](N)C(=O)O)c[nH]c12; 2Nal = N[C@@H](Cc1ccc2ccccc2c1)C(=O)O; Thp = NC1(C(=O)O)CCOCC1; Me2NCH2CH2 = CN(C)CC*; Ava = NCCCCC(=O)O
property label: solubility at 2 h

Return solubility at 2 h (reported value) for this compound: CC(=O)NCCCC[C@@H]1NC(=O)[C@H](Cc2c[nH]c3c(C)cccc23)NC(=O)[C@H]([C@@H](C)O)NC(=O)[C@H](CC(N)=O)NC(=O)[C@@H]2CSSC[C@H](NC1=O)C(=O)N[C@@H](Cc1ccc(OCCN(C)C)cc1)C(=O)N[C@@H](Cc1ccc3ccccc3c1)C(=O)NC1(CCOCC1)C(=O)N[C@H](C(=O)N[C@@H](CC(N)=O)C(=O)N[C@@H](Cc1c[nH]cn1)C(N)=O)CCC(=O)NCCCCC(=O)N2 [compound 21] ([Ava]CNT[Trp(7-Me)]K(Ac)CY(Me2NCH2CH2)[2Nal][Thp]ENH-NH2; disulfide 2-7; lactam N-11)
≥ 1080 µg/mL

====

Hi there, I'd appreciate the recorded remaining at 2 h, 1 µM for every entry that follows.
# Test system: Pancreatin
# experimental details: Protease stability in simulated intestinal fluid (Pancreatin-SIF, FaSSIF)
# Assay type: in vitro ADME
# measurement parameters: 120 min, 1 μM peptide, 37° C., read-out: FaSSIF 120 (min), remaining percent of peptide
Starred links: 1 amine or outer side, 2 acyl side, 3 side chain; linkers in the order of their positions; H or OH if unused. Positions of bridges follow the written chain, without caps; N, C: chain ends. Non-standard residues stand in square brackets, D forms with d. Residues, ends and D or L forms follow the SMILES beside them. *: point of attachment. X5 = CN(C(=O)CCC(=O)[*:3])[C@@H](CS[*:2])C(=O)[*:1]; Trp(7-Me) = Cc1cccc2c(C[C@H](N)C(=O)O)c[nH]c12; 2Nal = N[C@@H](Cc1ccc2ccccc2c1)C(=O)O; 3Pal = N[C@@H](Cc1cccnc1)C(=O)O; Lys(Me) = CNCCCC[C@H](N)C(=O)O; αMeL = CC(C)C[C@](C)(N)C(=O)O; Thp = NC1(C(=O)O)CCOCC1; Me2NCH2CH2 = CN(C)CC*; Ava = NCCCCC(=O)O; Sar = CNCC(=O)O
Answers are plain numbers, in %.

C[C@@H](O)[C@@H]1NC(=O)[C@H](CC(N)=O)NC(=O)[C@@H]2CSSC[C@H](NC(=O)[C@H](CCC(N)=O)NC(=O)[C@H](Cc3c[nH]c4ccccc34)NC1=O)C(=O)N[C@@H](Cc1ccc(OCCN(C)C)cc1)C(=O)N[C@@H](Cc1ccc3ccccc3c1)C(=O)NC1(CCOCC1)C(=O)N[C@H](C(=O)N[C@@H](CC(N)=O)C(=O)N[C@@H](CC(N)=O)C(N)=O)CCC(=O)NCCCCC(=O)N2 [compound 26] ([Ava]CNTWQCY(Me2NCH2CH2)[2Nal][Thp]ENN-NH2; disulfide 2-7; lactam N-11) = 95

# context switch: different molecule, same remaining at 2 h, 1 µM
Check Pancreatin data and give remaining at 2 h, 1 µM for CC(=O)N[C@H]1CCCCNC(=O)[C@@H]2CSSC[C@H](NC(=O)[C@H](CC(C)C)NC(=O)[C@H](Cc3c[nH]c4c(C)cccc34)NC1=O)C(=O)N[C@@H](Cc1ccc(OCCN(C)C)cc1)C(=O)N[C@@H](Cc1ccc3ccccc3c1)C(=O)N[C@@](C)(CC(C)C)C(=O)N[C@H](C(=O)N[C@@H](C)C(=O)N[C@@H](Cc1cccnc1)C(=O)N(C)CC(N)=O)CCCCN(C)C(=O)CCC(=O)N2C [compound 70] (Ac-K[Trp(7-Me)]LCY(Me2NCH2CH2)[2Nal][αMeL][Lys(Me)]A[3Pal][Sar]-NH2; linker 1-4-8 via X5) .
90

====

# experimental details: Solubility testing of peptides at different pH
# Assay type: physicochemical
# measurement parameters: 50 mM phosphate buffer pH 6.5; target concentration 1 mg/ml; 2 hours agitation; read-out: Solubility Buffer pH 6.5
Positions of bridges follow the written chain, without caps; N, C: chain ends. Non-standard residues stand in square brackets, D forms with d. Residues, ends and D or L forms follow the SMILES beside them. 2Nal = N[C@@H](Cc1ccc2ccccc2c1)C(=O)O; Aib = CC(C)(N)C(=O)O
property label: solubility at 2 h (mg/mL)
Answers are plain numbers, in mg/mL.

Write down solubility at 2 h measured for item COc1ccc(C[C@@H]2NC(=O)[C@@H]3CSSC[C@H](NC(=O)[C@@H](NC(C)=O)CCCCNC(=O)C[C@@H](C(=O)N[C@@H](CC(N)=O)C(=O)N[C@@H](CC(N)=O)C(N)=O)NC(=O)C(C)(C)NC(=O)[C@H](Cc4ccc5ccccc5c4)NC2=O)C(=O)N[C@@H](CC(N)=O)C(=O)N[C@@H]([C@@H](C)O)C(=O)N[C@@H](Cc2c[nH]c4ccccc24)C(=O)N[C@@H](CCC(N)=O)C(=O)N3)cc1 [compound 7] (Ac-KCNTWQCY(Me)[2Nal][Aib]DNN-NH2; lactam 1-11; disulfide 2-7)
0.16

====

# tested system: human interleukin-23 receptor (recombinant human IL-23R-Fc chimera) (Homo sapiens)
# Construct: Fc (IgG Fc fusion)
# experimental details: Human ELISA IL23/IL23R (assay for specific human IL23R antagonists)
# Type: binding
# measurement parameters: Table 10; read-out: Human ELISA IL23/IL23R IC50
Starred links: 1 amine or outer side, 2 acyl side, 3 side chain; linkers in the order of their positions; H or OH if unused. Positions of bridges follow the written chain, without caps; N, C: chain ends. Non-standard residues stand in square brackets, D forms with d. Residues, ends and D or L forms follow the SMILES beside them. *: point of attachment. X1 = O=C(CCCCN[*:3])N[C@@H](CS[*:2])C(=O)[*:1]; 2Nal = N[C@@H](Cc1ccc2ccccc2c1)C(=O)O; Thp = NC1(C(=O)O)CCOCC1; Me2NCH2CH2 = CN(C)CC*; Ava = NCCCCC(=O)O
property label: pIC50
Answers are plain numbers, as −log10 of the molar value.

C[C@@H](O)[C@@H]1NC(=O)[C@H](CC(N)=O)NC(=O)[C@@H]2CSSC[C@H](NC(=O)[C@H](CCC(N)=O)NC(=O)[C@H](Cc3c[nH]c4ccccc34)NC1=O)C(=O)N[C@@H](Cc1ccc(OCCN(C)C)cc1)C(=O)N[C@@H](Cc1ccc3ccccc3c1)C(=O)NC1(CCOCC1)C(=O)N[C@H](C(=O)N[C@@H](CC(N)=O)C(=O)N[C@@H](CC(N)=O)C(N)=O)CCC(=O)NCCCCC(=O)N2 [compound 26] ([Ava]CNTWQCY(Me2NCH2CH2)[2Nal][Thp]ENN-NH2; disulfide 2-7; lactam N-11) = 9.54

Then this molecule:
// fetch pIC50 given entry CC(=O)N[C@H]1CCCCNC(=O)[C@@H]2CSSC[C@H](NC(=O)[C@H](CCC(N)=O)NC(=O)[C@H](Cc3c[nH]c4ccccc34)NC1=O)C(=O)N[C@@H](Cc1ccc(OCCN(C)C)cc1)C(=O)N[C@@H](Cc1ccc3ccccc3c1)C(=O)NC1(CCOCC1)C(=O)N[C@H](C(=O)N[C@@H](C)C(=O)N[C@H](CC(C)C)C(N)=O)CCC(=O)NCCCCC(=O)N2 [compound 33] (Ac-KWQCY(Me2NCH2CH2)[2Nal][Thp]EA[dL]-NH2; linker 1-4-8 via X1)
9.25
